- experimental.system: his-labeled human IL-13 (immunogen A) (human) (UniProt P35225)
- measurement.notes: FACS blocking, biotin-IL-13 on IL-13Ra2 HEK293 cells; antibody at 1.33 nM
readout.name: mean fluorescence intensity
// no unit, no text: just the number

Entry c70F10A10 (mouse-human chimeric IL-13 antibody) (antibody, V domains shown) VH: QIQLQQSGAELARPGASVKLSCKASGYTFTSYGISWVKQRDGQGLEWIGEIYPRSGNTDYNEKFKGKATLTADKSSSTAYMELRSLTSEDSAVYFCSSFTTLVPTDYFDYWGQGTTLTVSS VL: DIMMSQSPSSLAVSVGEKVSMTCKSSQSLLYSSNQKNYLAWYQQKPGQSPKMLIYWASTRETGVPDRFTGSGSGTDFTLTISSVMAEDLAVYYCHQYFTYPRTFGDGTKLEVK ; mean fluorescence intensity = 49.1

Entry 28A2E11 (lead antibody, mouse hybridoma) (antibody, V domains shown, Mouse monoclonal antibody purified from hybridoma supernatant on Protein G) VH: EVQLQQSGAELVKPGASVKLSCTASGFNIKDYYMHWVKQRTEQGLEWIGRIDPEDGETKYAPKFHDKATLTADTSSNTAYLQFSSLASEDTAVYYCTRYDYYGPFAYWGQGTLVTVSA VL: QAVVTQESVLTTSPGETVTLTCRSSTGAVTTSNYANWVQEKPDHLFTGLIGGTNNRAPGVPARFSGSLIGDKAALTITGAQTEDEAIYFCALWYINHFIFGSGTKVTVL ; mean fluorescence intensity = 60.1
